Measured inhibition of growth at 10 µM accompanies every entry in the list below.
system: Malme-3M; test: Antiproliferative activity against human Malme-3M cells assessed as cell growth inhibition at 10 uM incubated for 48 hrs by SRB assay relative to control; type: functional; conditions: read-out: GI

[
  {
    "Smi": "Cc1nc2c(cnn2-c2ccccc2)c(=O)n1-c1ccc(NC(=O)c2ccc(Cl)cc2)cc1",
    "Relation qualifier": "=",
    "inhibition of growth at 10 µM, %": 33.3
  },
  {
    "Smi": "Cc1nc2c(cnn2-c2ccccc2)c(=O)n1-c1ccc(NC(=O)c2ccco2)cc1",
    "Relation qualifier": "=",
    "inhibition of growth at 10 µM, %": 16.6
  },
  {
    "Smi": "Cc1nc2c(cnn2-c2ccccc2)c(=O)n1-c1ccc(N2C(=O)c3ccccc3C2=O)cc1",
    "Relation qualifier": "<",
    "inhibition of growth at 10 µM, %": 15
  },
  {
    "Smi": "Cc1nc2c(cnn2-c2ccccc2)c(=O)n1-c1ccc(N)cc1",
    "Relation qualifier": "=",
    "inhibition of growth at 10 µM, %": 17.8
  },
  {
    "Smi": "Cc1nc2c(cnn2-c2ccccc2)c(=O)n1-c1ccc(NC(=O)c2ccc([N+](=O)[O-])cc2)cc1",
    "Relation qualifier": "=",
    "inhibition of growth at 10 µM, %": 34
  },
  {
    "Smi": "Cc1ccc(C(=O)Nc2ccc(-n3c(C)nc4c(cnn4-c4ccccc4)c3=O)cc2)cc1",
    "Relation qualifier": "=",
    "inhibition of growth at 10 µM, %": 32.3
  },
  {
    "Smi": "Cc1nc2c(cnn2-c2ccccc2)c(=O)n1-c1ccc(NC(=O)c2ccccc2)cc1",
    "Relation qualifier": "=",
    "inhibition of growth at 10 µM, %": 29.8
  }
]

* * *

system: T47D; test: Cytotoxicity against human T47D cells assessed as cell growth inhibition incubated for 72 hrs by MTT assay; assay type: functional, cell-based
pIC50: −log10 of the molar value.

[
  {
    "Smi": "Cc1nc2c(cnn2-c2ccccc2)c(=O)n1-c1ccc(NC(=O)c2ccc(F)cc2)cc1",
    "pIC50": 5.32
  },
  {
    "Smi": "Cc1nc2c(cnn2-c2ccccc2)c(=O)n1-c1ccc(NC(=O)c2ccc(Cl)cc2)cc1",
    "pIC50": 4.70
  },
  {
    "Smi": "Cc1nc2c(cnn2-c2ccccc2)c(=O)n1-c1ccc(NC(=O)c2ccccc2)cc1",
    "pIC50": 4.45
  }
]

* * *

tested on: CAKI-1; test: Antiproliferative activity against human CAKI-1 cells assessed as cell growth inhibition at 10 uM incubated for 48 hrs by SRB assay relative to control; type: functional; conditions: read-out: GI
Measured inhibition of growth at 10 µM accompanies every entry in the list below.

[
  {
    "Smi": "Cc1nc2c(cnn2-c2ccccc2)c(=O)n1-c1ccc(N2C(=O)c3ccccc3C2=O)cc1",
    "Measured on": "CAKI-1",
    "inhibition of growth at 10 µM": "< 15%"
  },
  {
    "Smi": "Cc1nc2c(cnn2-c2ccccc2)c(=O)n1-c1ccc(N2C(=O)C=CC2=O)cc1",
    "Measured on": "CAKI-1",
    "inhibition of growth at 10 µM": "< 15%"
  },
  {
    "Smi": "Cc1nc2c(cnn2-c2ccccc2)c(=O)n1-c1ccc(NC(=O)c2ccc(F)cc2)cc1",
    "Measured on": "CAKI-1",
    "inhibition of growth at 10 µM": "34.3%"
  }
]
